STUDY TARGET: RNA-directed RNA polymerase (Hepacivirus hominis)
PROCEDURE SUMMARY: Inhibition of HCV 1a NS5B RNA polymerase
MEASURED PARAMETER: IC50 (nM)
Entry rule: numbers only, all in nM.

| MOL SMILES | UNIT ABBREV | IC50 |
| --- | --- | --- |
| CC(C)CCn1c(=O)c(C2=Nc3ccc(NS(=O)(=O)NN4CCCC4)cc3S(=O)(=O)N2)c(O)c2cccnc21 | nM | 27 |

Field IC50 (entry `CC(C)CCn1c(=O)c(C2=NS(=O)(=O)c3cc(NS(=O)(=O)NCc4ccccc4)ccc3N2)c(O)c2cccnc21` ) reads 5.5

Record `CC(C)CCn1c(=O)c(C2=Nc3ccc(NS(=O)(=O)NC4CCCCC4)cc3S(=O)(=O)N2)c(O)c2cccnc21` , field IC50: 67

In plain terms, `COc1ccc(CNS(=O)(=O)Nc2ccc3c(c2)S(=O)(=O)N=C(c2c(O)c4cccnc4n(CCC(C)C)c2=O)N3)cc1` has a documented IC50 of 10

So for `NS(=O)(=O)Nc1ccc2c(c1)S(=O)(=O)NC(c1c(O)c3ccccc3n(NC3CCC3)c1=O)=N2` , the logged IC50 turned out to be 5.2

----------
STUDY TARGET: RNA-directed RNA polymerase (Hepacivirus hominis, UniProt O39930)
Sequence (O39930 whole entry): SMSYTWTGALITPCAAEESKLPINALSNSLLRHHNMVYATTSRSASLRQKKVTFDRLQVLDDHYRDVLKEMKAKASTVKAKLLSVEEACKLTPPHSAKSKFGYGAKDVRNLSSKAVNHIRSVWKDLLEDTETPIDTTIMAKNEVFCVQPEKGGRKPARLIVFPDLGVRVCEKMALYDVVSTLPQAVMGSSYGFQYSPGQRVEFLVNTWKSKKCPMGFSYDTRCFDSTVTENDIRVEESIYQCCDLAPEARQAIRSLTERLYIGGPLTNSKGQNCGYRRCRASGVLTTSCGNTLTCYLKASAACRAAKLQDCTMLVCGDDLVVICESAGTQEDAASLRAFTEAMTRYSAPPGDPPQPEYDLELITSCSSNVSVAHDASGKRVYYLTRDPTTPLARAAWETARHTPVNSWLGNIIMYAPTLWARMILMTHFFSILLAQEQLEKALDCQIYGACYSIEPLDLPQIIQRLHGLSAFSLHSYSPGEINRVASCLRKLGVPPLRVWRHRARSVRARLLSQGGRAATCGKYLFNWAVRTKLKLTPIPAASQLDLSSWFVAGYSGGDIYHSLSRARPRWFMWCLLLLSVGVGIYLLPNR
PROCEDURE SUMMARY: Inhibition of HCV 1b NS5B RNA polymerase
Parameters: species or system Hepatitis C virus subtype 1b
MEASURED PARAMETER: pIC50
# pIC50 = -log10(concentration in molar units)

Take a look at these entries with their results.
| MOL SMILES | pIC50 |
| --- | --- |
| NS(=O)(=O)Nc1ccc2c(c1)S(=O)(=O)NC(c1c(O)c3ccccc3n(NC3CCC3)c1=O)=N2 | 9.40 |
| CC(C)CCn1c(=O)c(C2=NS(=O)(=O)c3cc(NS(N)(=O)=O)ccc3N2)c(O)c2cccnc21 | 8.55 |
| CC(C)CCn1c(=O)c(C2=NS(=O)(=O)c3cc(NS(C)(=O)=O)ccc3N2)c(O)c2cccnc21 | 8.22 |
| CC(C)CCn1c(=O)c(C2=Nc3ccc(NS(=O)(=O)NC(=O)OCCC#N)cc3S(=O)(=O)N2)c(O)c2cccnc21 | 8.17 |
| CC(C)CCn1c(=O)c(C2=NS(=O)(=O)c3cc(NS(=O)(=O)NCc4ccccc4)ccc3N2)c(O)c2cccnc21 | 7.36 |

Lab note: measured pIC50 of `CC(C)CCn1c(=O)c(C2=Nc3ccc(NS(=O)(=O)NCCc4ccccc4)cc3S(=O)(=O)N2)c(O)c2cccnc21` was 7.43

----------
List of pIC50 values.
STUDY TARGET: RNA-directed RNA polymerase (Hepacivirus hominis)
PROCEDURE SUMMARY: Inhibition of HCV 1a NS5B RNA polymerase
Just so you know, pIC50 here is -log10 of the concentration in molar units; reply with that number alone.

Reference set, count: 5
| MOL SMILES | MEASURED PARAMETER | OBSERVED RESULT |
| --- | --- | --- |
| CCOC(=O)c1cccc(NS(=O)(=O)Nc2ccc3c(c2)S(=O)(=O)NC(c2c(O)c4cccnc4n(CCC(C)C)c2=O)=N3)c1 | pIC50 | 6.88 |
| CC(C)CCn1c(=O)c(C2=Nc3ccc(NS(=O)(=O)NCCc4ccccc4)cc3S(=O)(=O)N2)c(O)c2cccnc21 | pIC50 | 7.74 |
| COc1ccccc1CNS(=O)(=O)Nc1ccc2c(c1)S(=O)(=O)NC(c1c(O)c3cccnc3n(CCC(C)C)c1=O)=N2 | pIC50 | 7.24 |
| CC(C)CCn1c(=O)c(C2=Nc3ccc(NS(=O)(=O)NC(=O)OCc4ccccc4)cc3S(=O)(=O)N2)c(O)c2cccnc21 | pIC50 | 7.24 |
| CC(C)CCn1c(=O)c(C2=Nc3ccc(NS(=O)(=O)NCc4cccc([N+](=O)[O-])c4)cc3S(=O)(=O)N2)c(O)c2cccnc21 | pIC50 | 7.89 |

Entry `CC(C)CCn1c(=O)c(C2=NS(=O)(=O)c3cc(NS(=O)(=O)Nc4cccc(C(N)=O)c4)ccc3N2)c(O)c2cccnc21` : pIC50 on RNA-directed RNA polymerase (Hepacivirus hominis) = 7.37

Considering `C=CCOC(=O)NS(=O)(=O)Nc1ccc2c(c1)S(=O)(=O)N=C(c1c(O)c3cccnc3n(CCC(C)C)c1=O)N2` , its pIC50 with RNA-directed RNA polymerase (Hepacivirus hominis) was recorded as 7.06

Item `CCOC(=O)COC(=O)NS(=O)(=O)Nc1ccc2c(c1)S(=O)(=O)NC(c1c(O)c3cccnc3n(CCC(C)C)c1=O)=N2` ; assay system RNA-directed RNA polymerase (Hepacivirus hominis); pIC50 reported as 7.21

Test item `CC(C)CCn1c(=O)c(C2=Nc3ccc(NS(=O)(=O)Nc4ccccc4)cc3S(=O)(=O)N2)c(O)c2cccnc21` ; RNA-directed RNA polymerase (Hepacivirus hominis); reported pIC50 was 7.39

Response field pIC50 (RNA-directed RNA polymerase (Hepacivirus hominis)) for item `CC(C)CCn1c(=O)c(C2=Nc3ccc(NS(=O)(=O)NCCO)cc3S(=O)(=O)N2)c(O)c2cccnc21` : 6.97

I looked up `CC(C)CCn1c(=O)c(C2=Nc3ccc(NS(=O)(=O)NC(=O)OCCOCc4ccccc4)cc3S(=O)(=O)N2)c(O)c2cccnc21` and its pIC50 for RNA-directed RNA polymerase (Hepacivirus hominis) was 7.02

Bench note, RNA-directed RNA polymerase (Hepacivirus hominis): entry `CC(C)CCn1c(=O)c(C2=Nc3ccc(NS(=O)(=O)NC4CCNCC4)cc3S(=O)(=O)N2)c(O)c2cccnc21` , its pIC50 = 7.49

Bench note, RNA-directed RNA polymerase (Hepacivirus hominis): entry `CC(C)CCn1c(=O)c(C2=NS(=O)(=O)c3cc(NS(=O)(=O)Nc4cccc(C(=O)NCC(N)=O)c4)ccc3N2)c(O)c2cccnc21` , its pIC50 = 7.37

pIC50 value, target or system RNA-directed RNA polymerase (Hepacivirus hominis), for `CNC(=O)c1ccc(NS(=O)(=O)Nc2ccc3c(c2)S(=O)(=O)N=C(c2c(O)c4cccnc4n(CCC(C)C)c2=O)N3)cc1` : 7.37

// pIC50 (RNA-directed RNA polymerase (Hepacivirus hominis)) for `COC(=O)c1ccc(NS(=O)(=O)Nc2ccc3c(c2)S(=O)(=O)N=C(c2c(O)c4cccnc4n(CCC(C)C)c2=O)N3)cc1` = 7.32
